# System: SW1271 complex spheroids with HUVEC/MSC, growth, % test/control
# ASSAY SUMMARY: Anticancer human tumor SW1271 cell line growth inhibition [AhR]; active = viability on the fitted dose curve at most 10% of control; inactive = the rest;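 note: spheroids exposed to agents for 7 days before readout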
# CONDITIONS: second compound 10 µM; first compound 10 µM
Classes used: t for active, f for inactive

>  <COMPOUND>
NS(=O)(=O)OCC1CC(n2ccc3c(NC4CCc5ccccc54)ncnc32)CC1O (stereo unspecified) + Cc1ccccc1N=Nc1ccc(NC(=O)c2ccnn2C)c(C)c1

>  <GROUP>
f

$$$$
>  <COMPOUND>
CC1(C)CCC(CN2CCN(c3ccc(C(=O)NS(=O)(=O)c4ccc(NCC5CCOCC5)c([N+](=O)[O-])c4)c(Oc4cnc5[nH]ccc5c4)c3)CC2)=C(c2ccc(Cl)cc2)C1 + Cc1cncc(-c2nc(NCCc3c[nH]c4ccccc34)c3ncn(C(C)C)c3n2)c1

>  <GROUP>
f

$$$$
>  <COMPOUND>
Nc1ccn(C2OC(CO)C(O)C2(F)F)c(=O)n1 (stereo unspecified) + Cc1cncc(-c2nc(NCCc3c[nH]c4ccccc34)c3ncn(C(C)C)c3n2)c1

>  <GROUP>
f

$$$$
>  <COMPOUND>
COc1cccc2c1C(=O)c1c(O)c3c(c(O)c1C2=O)CC(O)(C(=O)CO)CC3OC1CC(N)C(O)C(C)O1 (stereo unspecified) + Cc1ccccc1N=Nc1ccc(NC(=O)c2ccnn2C)c(C)c1

>  <GROUP>
t

$$$$
>  <COMPOUND>
COc1cc(C2c3cc4c(cc3C(OC3OC5COC(C)OC5C(O)C3O)C3COC(=O)C23)OCO4)cc(OC)c1O (stereo unspecified) + Cc1cncc(-c2nc(NCCc3c[nH]c4ccccc34)c3ncn(C(C)C)c3n2)c1

>  <GROUP>
f

$$$$
>  <COMPOUND>
NS(=O)(=O)OCC1CC(n2ccc3c(NC4CCc5ccccc54)ncnc32)CC1O (stereo unspecified) + Cc1cncc(-c2nc(NCCc3c[nH]c4ccccc34)c3ncn(C(C)C)c3n2)c1

>  <GROUP>
f

$$$$
>  <COMPOUND>
Nc1ccccc1NC(=O)c1ccc(CNC(=O)OCc2cccnc2)cc1 + CC(CO)NC(=O)c1cc(-c2ccc(Cl)cc2)nn(-c2cnn(C)c2)c1=O

>  <GROUP>
f

$$$$
>  <COMPOUND>
O=C(c1cc(Cc2n[nH]c(=O)c3ccccc23)ccc1F)N1CCN(C(=O)C2CC2)CC1 + Cc1cncc(-c2nc(NCCc3c[nH]c4ccccc34)c3ncn(C(C)C)c3n2)c1

>  <GROUP>
f

$$$$
>  <COMPOUND>
COc1cc(C2c3cc4c(cc3C(OC3OC5COC(C)OC5C(O)C3O)C3COC(=O)C23)OCO4)cc(OC)c1O (stereo unspecified) + Cc1ccccc1N=Nc1ccc(NC(=O)c2ccnn2C)c(C)c1

>  <GROUP>
f

$$$$
>  <COMPOUND>
O=C(c1cc(Cc2n[nH]c(=O)c3ccccc23)ccc1F)N1CCN(C(=O)C2CC2)CC1 + Cc1ccccc1N=Nc1ccc(NC(=O)c2ccnn2C)c(C)c1

>  <GROUP>
f

$$$$
>  <COMPOUND>
COc1cccc2c1C(=O)c1c(O)c3c(c(O)c1C2=O)CC(O)(C(=O)CO)CC3OC1CC(N)C(O)C(C)O1 (stereo unspecified) + Cc1cncc(-c2nc(NCCc3c[nH]c4ccccc34)c3ncn(C(C)C)c3n2)c1

>  <GROUP>
t

$$$$

Provenance of the data: PubChem BioAssay AID1919017
